The entries below are paired with their reported AC50.
- System: MYB mRNA
- method: RT-qPCR splicing assay, MYB canonical junction (CJ) and alternative junction (AJ) mRNA
- Assay type: cell-based, human
- assay.setup: Homo sapiens; increase in MYB alternative junction (AJ) mRNA, RT-qPCR; read-out: MYB AJ AC50
parameter: AC50

[[record]]
molecule = "Cc1cn2cc(-c3ccc4c(=O)n(C5CCNCC5)ccc4c3)cc(C#N)c2n1"
tgt = "MYB mRNA"
reported = "100 to 1000 nM"

[[record]]
molecule = "Cc1nc2c(C)cc(-c3ccc4c(=O)n(C5CCNC6(CC6)C5)ncc4c3)cc2o1 (centres unmarked)"
tgt = "MYB mRNA"
reported = "1000 to 10000 nM"

[[record]]
molecule = "Cc1c(O)c(-c2ncc3c(=O)n([C@@H]4C[C@H]5C[C@@H]4CN5)ccc3n2)cc2cn(C)nc12"
tgt = "MYB mRNA"
reported = "1000 to 10000 nM"

[[record]]
molecule = "Cc1cn2nc(-c3ccc4c(=O)n(C5CCNCC5)ccc4c3)cc(-n3ccc(=O)cc3)c2n1"
tgt = "MYB mRNA"
reported = "100 to 1000 nM"

[[record]]
molecule = "Cc1cn2nc(-c3ccc4c(=O)n(C5CCNCC5)ccc4c3)cc(Cc3nnc[nH]3)c2n1"
tgt = "MYB mRNA"
reported = "1000 to 10000 nM"

[[record]]
molecule = "Cc1cn2cc(-c3ccc4c(=O)n(C5CCNC6(CC6)C5)cnc4c3)cc(F)c2n1 (centres unmarked)"
tgt = "MYB mRNA"
reported = "100 to 1000 nM"

[[record]]
molecule = "Cc1cn2nc(-c3ccc4c(=O)n(C5CCNC6(CC6)C5)ncc4n3)cc2c(C)n1 (centres unmarked)"
tgt = "MYB mRNA"
reported = "1000 to 10000 nM"

[[record]]
molecule = "Cc1cn2nc(-c3cc(O)c4c(=O)n(C5CCNC5)cnc4c3)cc(C)c2n1 (centres unmarked)"
tgt = "MYB mRNA"
reported = "1000 to 10000 nM"


* * *

- Tested on: MYB mRNA
- method: RT-qPCR splicing assay, MYB canonical junction (CJ) and alternative junction (AJ) mRNA
- Format: cell-based, human
- assay.setup: Homo sapiens; decrease in MYB canonical junction (CJ) mRNA, RT-qPCR; read-out: MYB CJ IC50
pIC50: −log10 of the molar value.
The entries below are paired with their reported pIC50.
parameter: pIC50

[[record]]
compound = "Cc1cn2cc(-c3ccc4c(c3)CCN(C3CCNCC3)C4=O)cc(F)c2n1 [Compound 247]"
parameter = "pIC50"
reported = "6.00 to 7.00"

[[record]]
compound = "Cc1cn2nc(-c3cc(C)c4c(=O)n(C5CCNC6(CC6)C5)ncc4n3)cc(C)c2n1 (stereo not shown) [Compound 1552]"
parameter = "pIC50"
reported = "6.00 to 7.00"

[[record]]
compound = "Cc1cn2nc(-n3cnc4ccc(N5CCN(C)CC5)cc4c3=O)cc(C)c2n1 [Compound 2202]"
parameter = "pIC50"
reported = "5.00 to 6.00"

[[record]]
compound = "Cc1cn2cc(-c3nc4ccc(N5CCNCC5)cc4c(=O)[nH]3)cc(F)c2n1 [Compound 115]"
parameter = "pIC50"
reported = "6.00 to 7.00"

